Where these numbers come from: patent US6914045B2

Each entry below carries its reported MIC Escherichia coli (GC 4559).
Test system: Escherichia coli
Assay: in vitro antibacterial evaluation, MIC by broth dilution
Assay type: cell-based
Details: 18 hours at 35° C., strain GC 4559
The answer is to be given in µg/mL; state only the numeric part.

>>> quantitative_result("COc1ccc(CC2OCC3OC(OC4C(CO)OC(Oc5ccc(CC6NC(=O)C(C(C)c7ccccc7)NC(=O)CNC(=O)C(CO)NC(=O)C(C(O)C7CNC(=N)N7C7OC(CO)C(O)C(O)C7O)NC(=O)C(C(O)C7CNC(=N)N7)NC6=O)cc5)C(O)C4O)C(O)C(O)C3O2)cc1 (centres unmarked) [Example 103]")
64

Below: the item to evaluate.
// MIC Escherichia coli (GC 4559) lookup, key: CC(c1ccccc1)C1NC(=O)CNC(=O)C(CO)NC(=O)C(C(O)C2CNC(=N)N2C2OC(CO)C(O)C(O)C2O)NC(=O)C(C(O)C2CNC(=N)N2)NC(=O)C(Cc2ccc(OC3OC(CO)C(OC4OC(COC(=O)CCC5CCCC5)C(O)C(O)C4O)C(O)C3O)cc2)NC1=O (centres unmarked) [Example 100c] 32

###

Each entry below carries its reported MIC Enterococcus faecium (GC 4556).
Tested on: Enterococcus sp.
Test: in vitro antibacterial evaluation, MIC by broth dilution
Type: cell-based
Details: broth dilution, 18 hours at 35° C.

// known answers, use as guide
>>> result("CC(c1ccccc1)C1NC(=O)CNC(=O)C(CO)NC(=O)C(C(O)C2CN(Cc3ccc(C(C)(C)C)cc3)C(=N)N2C2OC(CO)C(O)C(O)C2O)NC(=O)C(C(O)C2CNC(=N)N2)NC(=O)C(Cc2ccc(OC3OC(CO)C(OC4OC(CO)C(O)C(O)C4O)C(O)C3O)cc2)NC1=O (stereo not shown) [Example 60]")
">128 µg/mL"
>>> result("CC(c1ccccc1)C1NC(=O)CNC(=O)C(CO)NC(=O)C(C(O)C2CN(Cc3ccc(-c4ccccc4)cc3)C(=N)N2C2OC(CO)C(O)C(O)C2O)NC(=O)C(C(O)C2CNC(=N)N2)NC(=O)C(Cc2ccc(OC3OC(CO)C(OC4OC(CO)C(O)C(O)C4O)C(O)C3O)cc2)NC1=O (stereo not shown) [Example 66a]")
">128 µg/mL"
>>> result("CC(c1ccccc1)C1NC(=O)CNC(=O)C(CO)NC(=O)C(C(O)C2CN(c3nc4ccccc4o3)C(=N)N2C2OC(CO)C(O)C(O)C2O)NC(=O)C(C(O)C2CNC(=Nc3nc4ccccc4o3)N2)NC(=O)C(Cc2ccc(OC3OC(CO)C(OC4OC5COC6(OC5C(O)C4O)C4CC5CC(C4)CC6C5)C(O)C3O)cc2)NC1=O (stereo not shown) [Example 227]")
"64 µg/mL"

Below: the item to evaluate.
// MIC Enterococcus faecium (GC 4556) lookup, key: CC(c1ccccc1)C1NC(=O)CNC(=O)C(CO)NC(=O)C(C(O)C2CN(Cc3ccccc3-c3ccccc3)C(=N)N2C2OC(CO)C(O)C(O)C2O)NC(=O)C(C(O)C2CNC(=N)N2)NC(=O)C(Cc2ccc(OC3OC(CO)C(OC4OC(CO)C(O)C(O)C4O)C(O)C3O)cc2)NC1=O (stereo not shown) [Example 65] >128 µg/mL

###

System: Enterococcus sp.
Experiment: in vitro antibacterial evaluation, MIC by broth dilution
Assay type: cell-based
Conditions: broth dilution, 18 hours at 35° C.; strain GC 3059
measurement name: MIC Enterococcus faecalis (GC 3059)

>>> result("CC(c1ccccc1)C1NC(=O)CNC(=O)C(CO)NC(=O)C(C(O)C2CNC(=N)N2C2OC(CO)C(O)C(O)C2O)NC(=O)C(C(O)C2CNC(=N)N2)NC(=O)C(Cc2ccc(OC3OC(CO)C(OC4OC5COC(c6ccccc6)OC5C(O)C4O)C(O)C3O)cc2)NC1=O (stereo not shown) [Example 104]")
"4 µg/mL"
>>> result("CC(c1ccccc1)C1NC(=O)CNC(=O)C(CO)NC(=O)C(C(O)C2CNC(=N)N2C2OC(CO)C(O)C(O)C2O)NC(=O)C(C(O)C2CNC(=N)N2)NC(=O)C(Cc2ccc(OC3OC(CO)C(OC4OC5COC(CC6CCCCC6)OC5C(O)C4O)C(O)C3O)cc2)NC1=O (stereo not shown) [Example 122]")
"2 µg/mL"
>>> result("CC(c1ccccc1)C1NC(=O)CNC(=O)C(CO)NC(=O)C(C(O)C2CN(Cc3ccc(-c4ccccc4)cc3)C(=N)N2C2OC(CO)C(O)C(O)C2O)NC(=O)C(C(O)C2CNC(=N)N2)NC(=O)C(Cc2ccc(OC3OC(CO)C(OC4OC(CO)C(O)C(O)C4O)C(O)C3O)cc2)NC1=O (stereo not shown) [Example 66a]")
">128 µg/mL"

// MIC Enterococcus faecalis (GC 3059) lookup, key: CC(c1ccccc1)C1NC(=O)CNC(=O)C(CO)NC(=O)C(C(O)C2CN(c3nc4ccccc4o3)C(=N)N2C2OC(CO)C(O)C(O)C2O)NC(=O)C(C(O)C2CNC(=Nc3nc4ccccc4o3)N2)NC(=O)C(Cc2ccc(OC3OC(CO)C(OC4OC(CO)C(O)C(O)C4O)C(O)C3O)cc2)NC1=O (stereo not shown) [Example 93] >128 µg/mL

// MIC Enterococcus faecalis (GC 3059) lookup, key: CC(c1ccccc1)C1NC(=O)CNC(=O)C(CO)NC(=O)C(C(O)C2CNC(=N)N2C2OC(CO)C(O)C(O)C2O)NC(=O)C(C(O)C2CNC(=N)N2)NC(=O)C(Cc2ccc(OC3OC(CO)C(OC4OC5COC(C67CC8CC(CC(C8)C6)C7)OC5C(O)C4O)C(O)C3O)cc2)NC1=O (stereo not shown) [Example 127] 2 µg/mL

// MIC Enterococcus faecalis (GC 3059) lookup, key: CC(c1ccccc1)C1NC(=O)CNC(=O)C(CO)NC(=O)C(C(O)C2CN(Cc3ccccc3)C(=NCc3ccccc3)N2C2OC(CO)C(O)C(O)C2O)NC(=O)C(C(O)C2CN(Cc3ccccc3)C(=NCc3ccccc3)N2Cc2ccccc2)NC(=O)C(Cc2ccc(OC3OC(CO)C(OC4OC5COC6(OC5C(O)C4O)C4CC5CC(C4)CC6C5)C(O)C3O)cc2)NC1=O (stereo not shown) [Example 79] 32 µg/mL

// MIC Enterococcus faecalis (GC 3059) lookup, key: CC(c1ccccc1)C1NC(=O)CNC(=O)C(CO)NC(=O)C(C(O)C2CN(Cc3ccccc3)C(=N)N2C2OC(CO)C(O)C(O)C2O)NC(=O)C(C(O)C2CNC(=N)N2)NC(=O)C(Cc2ccc(OC3OC(CO)C(OC4OC(CO)C(O)C(O)C4O)C(O)C3O)cc2)NC1=O (stereo not shown) [Example 59] >128 µg/mL

###

Tested on: Enterococcus sp.
Assay: in vitro antibacterial evaluation, MIC by broth dilution
Assay type: cell-based
Conditions: Enterococcus faecium (GC 4557); broth dilution, 18 hours at 35° C.
Each entry below carries its reported MIC Enterococcus faecium (GC 4557).
The answer is to be given in µg/mL; state only the numeric part.

// known answers, use as guide
>>> quantitative_result("CC(c1ccccc1)C1NC(=O)CNC(=O)C(CO)NC(=O)C(C(O)C2CN(Cc3ccc(C(=O)O)cc3)C(=N)N2C2OC(CO)C(O)C(O)C2O)NC(=O)C(C(O)C2CNC(=N)N2)NC(=O)C(Cc2ccc(OC3OC(CO)C(OC4OC(CO)C(O)C(O)C4O)C(O)C3O)cc2)NC1=O (stereo not shown)")
128
>>> quantitative_result("CC(c1ccccc1)C1NC(=O)CNC(=O)C(CO)NC(=O)C(C(O)C2CNC(=N)N2C2OC(CO)C(O)C(O)C2O)NC(=O)C(C(O)C2CNC(=N)N2)NC(=O)C(Cc2ccc(OC3OC(CO)C(OC4OC5COC(c6ccccc6)OC5C(O)C4O)C(O)C3O)cc2)NC1=O (stereo not shown)")
2
>>> quantitative_result("CC(c1ccccc1)C1NC(=O)CNC(=O)C(CO)NC(=O)C(C(O)C2CN(Cc3ccccc3)C(=N)N2C2OC(CO)C(O)C(O)C2O)NC(=O)C(C(O)C2CNC(=N)N2)NC(=O)C(Cc2ccc(OC3OC(CO)C(OC4OC(CO)C(O)C(O)C4O)C(O)C3O)cc2)NC1=O (stereo not shown)")
128

Below: the item to evaluate.
// MIC Enterococcus faecium (GC 4557) lookup, key: COc1cccc(C2OC3C(OC4C(CO)OC(Oc5ccc(CC6NC(=O)C(C(C)c7ccccc7)NC(=O)CNC(=O)C(CO)NC(=O)C(C(O)C7CNC(=N)N7C7OC(CO)C(O)C(O)C7O)NC(=O)C(C(O)C7CNC(=N)N7)NC6=O)cc5)C(O)C4O)OC(CO)C(O)C3O2)c1 (single isomer, unassigned) [Example 137a] 16

###

Test system: Escherichia coli
Experiment: in vitro antibacterial evaluation, MIC by broth dilution
Assay type: cell-based
Details: 18 hours at 35° C.
Each entry below carries its reported MIC Escherichia coli (GC 4560).

>>> result("COc1ccc2cc(COCC3OC(OC4C(CO)OC(Oc5ccc(CC6NC(=O)C(C(C)c7ccccc7)NC(=O)CNC(=O)C(CO)NC(=O)C(C(O)C7CNC(=N)N7C7OC(CO)C(O)C(O)C7O)NC(=O)C(C(O)C7CNC(=N)N7)NC6=O)cc5)C(O)C4O)C(O)C(O)C3O)ccc2c1 (stereo not drawn)")
"1 µg/mL"
>>> result("COc1ccc2cc(COC3C(CO)OC(OC4C(CO)OC(Oc5ccc(CC6NC(=O)C(C(C)c7ccccc7)NC(=O)CNC(=O)C(CO)NC(=O)C(C(O)C7CNC(=N)N7C7OC(CO)C(O)C(O)C7O)NC(=O)C(C(O)C7CNC(=N)N7)NC6=O)cc5)C(O)C4O)C(O)C3O)ccc2c1 (stereo not drawn) [Example 230a]")
"0.25 to 1 µg/mL"

// MIC Escherichia coli (GC 4560) lookup, key: CCCOc1ccc(COCC2OC(OC3C(CO)OC(Oc4ccc(CC5NC(=O)C(C(C)c6ccccc6)NC(=O)CNC(=O)C(CO)NC(=O)C(C(O)C6CNC(=N)N6C6OC(CO)C(O)C(O)C6O)NC(=O)C(C(O)C6CNC(=N)N6)NC5=O)cc4)C(O)C3O)C(O)C(O)C2O)cc1 (stereo not drawn) 0.5 to 1 µg/mL
